// melting point lookup, one value per entry
READOUT_TYPE: melting point

INSERT INTO results (molecule, result) VALUES
  ('CN1C(=O)C(C(=O)Nc2ccc(Cl)cc2Oc2c(Cl)cccc2Cl)C(=O)N(C)C1=S', '254 to 257 °C'),
  ('CC(C)(C)NCC(O)COc1ccc(C(=O)Nc2cccc3[nH]ccc23)cc1 (stereo not given)', '212 °C'),
  ('CC(C)Oc1ccc(C(=O)c2ccc([N+](=O)[O-])cc2)cc1', '136 to 137 °C'),
  ('COC1(c2cc(F)cc(Sc3ccc(C(F)(F)c4ccc(F)cc4)cc3)c2)CCOCC1', '54 to 57 °C'),
  ('Cc1ccnc(C(=O)c2[nH]c3cc(C(F)(F)F)ccc3c2CC(=O)O)c1', '210 to 220 °C'),
  ('COc1ccc(-c2cc(Sc3ccc([N+](=O)[O-])cc3[N+](=O)[O-])sc2-c2ccc(OC)cc2)cc1', '143 to 145 °C'),
  ('OCc1onc(-c2ccc(Cl)o2)c1-c1ccccc1', '102 to 103 °C'),
  ('Cc1ccc(Oc2ccc(-c3ccccc3)cc2)cc1', '97 to 99 °C'),
  ('CCC(C)(C)Cc1ccc(C(=O)O)c(=O)[nH]1', '170 to 172 °C'),
  ('CCNC(=O)c1cc(Br)sc1[Si](C)(C)C', '96 to 98 °C');

###

READOUT_TYPE: melting point

INSERT INTO assay_data (compound, result) VALUES
  ('COc1ccc([C@@H]2O[C@@H](CC(=O)O)C(=O)N(CC(C)(C)C)c3ccc(Cl)cc32)c(OC)c1', '233 to 234 °C'),
  ('COc1nc(C#N)c(C#N)n1C', '192 to 194 °C'),
  ('CC1(C)C(=O)c2c(cc(OCC(=O)O)c(Cl)c2Cl)C1c1ccccc1 (stereo unspecified)', '163 to 164 °C'),
  ('O=C1CC[C@]2(C[C@H]3CC[C@@H]2C3)C(=O)N1 (racemic)', '154 to 156 °C'),
  ('CCCCCc1nc(N(C)C)nc(C)c1O', '61 to 62 °C'),
  ('O=[N+]([O-])c1ccc(CSCc2c[nH]cn2)cc1', '88 °C'),
  ('CCOC(=O)C(=Cc1ccc(-c2nc3ccc(O)cc3o2)cc1)C(=O)OCC', '153 to 155 °C'),
  ('C[C@H]1[C@@H](O)CC(=O)N1c1ccc(C#N)c(Cl)c1', '161 to 162 °C'),
  ('Nc1nc(N)c2ncn(COC(CO)CO)c2n1', '176 to 177 °C'),
  ('COc1ccc(-c2noc3c2CCC(C(=O)O)CC3)cc1 (stereo unspecified)', '147 to 148 °C'),
  ('N#Cc1cc(N)ccc1OC1CCCCC1', '59 °C');

###

READOUT_TYPE: melting point

INSERT INTO assay_data (compound, readout_type, result) VALUES
  ('COc1cc2nc(SCc3nccc(N(C)C)c3F)[nH]c2cc1OC', 'melting point', '142 to 144 °C'),
  ('CCN(C)c1nsc(NC(=O)NC)c1C#N', 'melting point', '175 °C'),
  ('Cc1c2c(c(-c3ccccc3)n1C)N(C)C(=O)CN=C2c1ccccc1', 'melting point', '232 to 234 °C'),
  ('CC(C)c1ccc2ccc(N)nc2n1', 'melting point', '158 to 160 °C'),
  ('CN(CCCN=C(NC#N)NCCSCc1csc(NC(=N)N)n1)CCC(c1ccccc1)c1ccccn1 (stereo unspecified)', 'melting point', '110 to 112 °C'),
  ('CCCNC1=Nc2cccnc2N(CC)c2ncccc21', 'melting point', '114 to 116 °C'),
  ('CCCCCS(=O)(=O)NC(=O)CCc1cc(OCc2nnc(C)o2)nn1Cc1ccc(Cl)cc1Cl', 'melting point', '156 to 158 °C'),
  ('COc1ccc2c(c1OC)CCCC2c1c[nH]cn1 (stereo unspecified)', 'melting point', '160 °C'),
  ('CC(=O)N1CCc2ccc(C(O)CCCN3CCC(c4ccc(Cl)cc4)CC3)cc2CC1 (stereo unspecified)', 'melting point', '113 to 114 °C'),
  ('CC(C)(C)OC(=O)Nc1cc(Cl)c(C#Cc2ccccc2)cc1[N+](=O)[O-]', 'melting point', '166 to 167 °C'),
  ('CCC(S)=C1SC(=S)N(c2ccc(Cl)cc2)C1=O', 'melting point', '163 to 165 °C'),
  ('CCOC(=O)c1c(C)nc2scnc2c1N', 'melting point', '118 to 119 °C'),
  ('COCCOc1ccc(NC=C(C#N)C(=O)Nc2cc(OC)c(Cl)cc2Cl)cc1I', 'melting point', '209 to 210 °C'),
  ('O=C(CC1CCC1)N[C@H]1CC[C@H](CCN2CCC(c3cccc4c3CCO4)CC2)CC1', 'melting point', '196 °C'),
  ('N#CC1CN1C(=O)NC(=O)c1ccco1 (stereo unspecified)', 'melting point', '148 to 150 °C'),
  ('OCC1OC(c2c(Cl)nc3cc(Cl)c(Cl)cn23)C(O)C1O (stereo unspecified)', 'melting point', '239 to 240 °C'),
  ('Cc1ccc2c(c1)C=C(c1ccc(OCCN3CCCC3)cc1)S2=O (stereo unspecified)', 'melting point', '150 to 151 °C'),
  ('Cc1cnc2c(C(N)=O)cnn2c1-c1cccc(C(F)(F)F)c1', 'melting point', '237 to 239 °C'),
  ('COc1ccc(C2=NN(Cc3ccc([N+](=O)[O-])cc3)C(=O)SC2)cc1OC', 'melting point', '155 °C'),
  ('COc1ccc(CN2C(=O)CCc3cc(O)c(OC)cc32)cc1', 'melting point', '168 to 169 °C'),
  ('O=C1c2ccccc2C(=O)c2c1cc(CO)c1c2CCC1', 'melting point', '191 to 192 °C');

###

// reported melting point for each item listed
READOUT_TYPE: melting point

INSERT INTO assay_data (molecule, result) VALUES
  ('O=C(O)CCCCCCCCCCCCC(=O)ON1C(=O)CCC1=O', '116 to 118 °C'),
  ('O=C1Cc2ccc(SCc3ccccc3)cc2N1', '132 to 134 °C'),
  ('Cc1nc(NC(=O)c2cccc(S(C)(=O)=O)c2)sc1C(=O)NCc1ccccc1', '111 to 113 °C'),
  ('O=C1NC(c2c[nH]c3ccccc23)C(=O)N1CCCN1CCCCC1 (stereo not given)', '233 to 234 °C'),
  ('CC1(C)COc2ccc(C[C@@H](NC(=O)c3cccc4c(Cl)cccc34)[C@@H](O)c3cccc(Cl)c3)cc21 (racemic)', '191 to 192 °C'),
  ('Cc1oc(-c2ccccc2)nc1CCOc1cccc2c1ccn2C(C)C(=O)O (stereo not given)', '157 to 159 °C'),
  ('O=C(O)CCCCCCCCC=Cc1cccs1', '61 to 62 °C'),
  ('CCCCC[C@H]1CC[C@H](c2ccc(C#C[Si](C)(C)C)nn2)CC1', '118 to 119 °C'),
  ('CC(C)C1COc2ccccc2O1 (stereo not given)', '124 to 125 °C'),
  ('CCCCCCC(=O)Nc1cccc2c1C1(COc3cc4c(cc31)OCCO4)C(=O)N2C (stereo not given)', '123 to 124 °C');

###

Catalogue of compounds with associated melting point
READOUT_TYPE: melting point

INSERT INTO assay_data (compound, readout_type, result) VALUES
  ('O=C(O)c1ccccc1Sc1ccccc1C(=O)O', 'melting point', '226 to 227 °C'),
  ('COc1cc2cc3ncc(C#N)c(Nc4ccc(F)c(Cl)c4)c3cc2cc1OCCN1CCOCC1', 'melting point', '205 to 210 °C'),
  ('CN(C)c1ccc(CCc2ccc3c(=O)[nH]ncc3c2)cc1', 'melting point', '257 to 259 °C'),
  ('CCOCc1nc2c(N)nc3ccccc3c2n1CC1(O)CCC2(CC1)OCCO2', 'melting point', '207 to 209 °C'),
  ('COc1ccc(CC2SC(=O)NC2=O)cc1CC(=O)Nc1ccc(Oc2ccccc2)cc1 (stereo not given)', 'melting point', '82 to 84 °C'),
  ('Clc1ccc(-c2nccs2)cc1', 'melting point', '169 to 170 °C'),
  ('CC(C)(C)NCC(O)COc1ccc2oc(-c3ccc(OCc4ccccc4)c(OCc4ccccc4)c3)cc(=O)c2c1 (stereo not given)', 'melting point', '156 to 157 °C'),
  ('CSC(=NCCSCc1ccsn1)NC#N', 'melting point', '85 to 87 °C'),
  ('Cc1ccccc1C(=O)c1cc2c(cc1O)CCC2', 'melting point', '61 to 62 °C'),
  ('OCC(O)Cc1ncc[nH]1 (stereo not given)', 'melting point', '98 to 100 °C');
